Target: CFTR (Homo sapiens, UniProt P13569)
Construct: endogenous in cells; host or cells: T84 human colonic cells (ECACC)
Sequence (P13569 whole entry): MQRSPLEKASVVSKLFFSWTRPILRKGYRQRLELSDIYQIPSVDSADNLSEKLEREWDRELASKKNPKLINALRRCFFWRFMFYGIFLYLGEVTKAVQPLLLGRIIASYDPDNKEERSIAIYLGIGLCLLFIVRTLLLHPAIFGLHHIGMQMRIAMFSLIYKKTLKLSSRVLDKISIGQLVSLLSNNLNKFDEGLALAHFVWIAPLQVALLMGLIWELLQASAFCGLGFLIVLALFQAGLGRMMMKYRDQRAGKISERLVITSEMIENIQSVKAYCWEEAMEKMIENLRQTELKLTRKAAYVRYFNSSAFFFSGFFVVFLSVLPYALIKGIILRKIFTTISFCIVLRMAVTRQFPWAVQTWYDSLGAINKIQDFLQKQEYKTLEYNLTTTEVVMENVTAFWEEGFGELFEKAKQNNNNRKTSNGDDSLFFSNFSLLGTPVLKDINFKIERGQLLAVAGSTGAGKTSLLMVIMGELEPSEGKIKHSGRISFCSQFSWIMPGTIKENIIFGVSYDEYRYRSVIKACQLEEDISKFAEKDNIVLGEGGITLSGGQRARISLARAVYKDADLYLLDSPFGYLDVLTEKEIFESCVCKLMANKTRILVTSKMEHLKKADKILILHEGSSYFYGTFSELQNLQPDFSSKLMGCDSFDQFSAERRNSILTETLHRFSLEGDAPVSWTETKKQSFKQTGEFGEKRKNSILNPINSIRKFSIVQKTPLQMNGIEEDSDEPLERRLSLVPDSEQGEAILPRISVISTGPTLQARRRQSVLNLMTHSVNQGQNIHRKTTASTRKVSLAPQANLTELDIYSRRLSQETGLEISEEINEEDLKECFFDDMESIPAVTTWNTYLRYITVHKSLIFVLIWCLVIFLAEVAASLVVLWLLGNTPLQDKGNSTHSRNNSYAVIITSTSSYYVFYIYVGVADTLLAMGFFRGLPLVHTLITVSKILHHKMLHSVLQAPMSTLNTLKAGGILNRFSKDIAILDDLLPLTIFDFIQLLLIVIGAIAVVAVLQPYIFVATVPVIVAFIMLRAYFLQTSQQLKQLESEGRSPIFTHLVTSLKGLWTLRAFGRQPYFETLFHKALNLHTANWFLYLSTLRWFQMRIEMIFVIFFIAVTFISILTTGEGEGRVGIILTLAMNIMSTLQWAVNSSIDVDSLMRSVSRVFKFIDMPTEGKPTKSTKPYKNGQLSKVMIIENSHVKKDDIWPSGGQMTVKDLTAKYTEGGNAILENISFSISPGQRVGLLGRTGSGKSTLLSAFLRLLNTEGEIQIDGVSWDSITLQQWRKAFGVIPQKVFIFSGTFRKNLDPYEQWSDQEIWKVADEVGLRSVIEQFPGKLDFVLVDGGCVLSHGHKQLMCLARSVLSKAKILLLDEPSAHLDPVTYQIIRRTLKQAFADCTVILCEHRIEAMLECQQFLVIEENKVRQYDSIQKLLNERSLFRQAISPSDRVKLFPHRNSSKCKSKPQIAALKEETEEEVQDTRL
Assay: T84 assay (FLIPR membrane potential dye, forskolin/IBMX-stimulated CFTR channel activity)
Assay type: cell-based
Conditions: thiadiazole-containing compounds (Table 12), read-out: IC50
Decide using IC50 alone. Strictly below 10 µM: met. Equal to or above 10 µM: not met.

Reference set, count: 9
{"MOLECULE": "Cc1cc(Cl)ccc1OCc1nnc(-c2cc(Cl)c(O)c(Cl)c2)s1", "TARGET OR SYSTEM": "CFTR (Homo sapiens, UniProt P13569)", "DISCRETE LABEL": "not met"}
{"MOLECULE": "CN(CCO)C(=O)COc1c(Cl)cc(-c2nnc(CN3c4ccccc4Sc4ccccc43)s2)cc1Cl", "TARGET OR SYSTEM": "CFTR (Homo sapiens, UniProt P13569)", "DISCRETE LABEL": "met"}
{"MOLECULE": "Oc1c(Cl)cc(-c2nnc(COc3cccc(C(F)(F)F)c3)s2)cc1Cl", "TARGET OR SYSTEM": "CFTR (Homo sapiens, UniProt P13569)", "DISCRETE LABEL": "not met"}
{"MOLECULE": "Oc1c(Cl)cc(-c2nnc(Oc3ccc(Oc4ccccc4)cc3)s2)cc1Cl [10h]", "TARGET OR SYSTEM": "CFTR (Homo sapiens, UniProt P13569)", "DISCRETE LABEL": "not met"}
{"MOLECULE": "Oc1c(Cl)cc(-c2nnc(COc3ccc(F)cc3Cl)s2)cc1Cl", "TARGET OR SYSTEM": "CFTR (Homo sapiens, UniProt P13569)", "DISCRETE LABEL": "met"}
{"MOLECULE": "Oc1c(Cl)cc(-c2nnc(Cc3ccsc3)s2)cc1Cl", "TARGET OR SYSTEM": "CFTR (Homo sapiens, UniProt P13569)", "DISCRETE LABEL": "not met"}
{"MOLECULE": "O=C(COc1c(Cl)cc(-c2nnc(CN3c4ccccc4Sc4ccccc43)s2)cc1Cl)N(CCO)CCO", "TARGET OR SYSTEM": "CFTR (Homo sapiens, UniProt P13569)", "DISCRETE LABEL": "met"}
{"MOLECULE": "Oc1c(Cl)cc(-c2nnc(CN3c4ccccc4Sc4ccccc43)s2)cc1Cl", "TARGET OR SYSTEM": "CFTR (Homo sapiens, UniProt P13569)", "DISCRETE LABEL": "met"}
{"MOLECULE": "Oc1c(Cl)cc(-c2nnc(-c3snnc3-c3ccccc3)s2)cc1Cl", "TARGET OR SYSTEM": "CFTR (Homo sapiens, UniProt P13569)", "DISCRETE LABEL": "not met"}

We now examine a further molecule.
Dear colleague, could you confirm whether IC50 of Oc1c(Cl)cc(-c2nnc(Cc3cccc(Cl)c3)s2)cc1Cl falls below 10 µM? Thanks.
met

----------
Target: CFTR (Homo sapiens)
Construct: endogenous in cells; host or cells: T84 human colonic cells (ECACC)
Test: T84 assay (FLIPR membrane potential dye, forskolin/IBMX-stimulated CFTR channel activity)
Assay type: cell-based
Conditions: oxadiazole-containing compounds (a series), average of at least 2 runs unless annotated n = 1, read-out: IC50
Method: For example, Human colonic T84 cells can be acquired from the European Collection of Cell Cultures (ECACC) and grown in standard culture conditions as described by the supplier. […] T84 cells are incubated with the FLIPRRed membrane potential dye for 45 minutes in the presence and absence of test compound before being transferred to a commercially available fluorescence imaging plate reader (FLIPR384, Molecular Devices Corporation). […]
Decide using IC50 alone. Strictly below 20 µM: True. Equal to or above 20 µM: False.

{"MOLECULE": "O=C(NCc1ccc(F)cc1F)c1noc(-c2cc(Cl)c(O)c(Cl)c2)n1 [114a]", "TARGET OR SYSTEM": "CFTR (Homo sapiens)", "DISCRETE LABEL": "True"}
{"MOLECULE": "O=C(c1nc(-c2cc(Cl)c(O)c(Cl)c2)no1)N(CCO)Cc1ccccc1 [121a]", "TARGET OR SYSTEM": "CFTR (Homo sapiens)", "DISCRETE LABEL": "True"}
{"MOLECULE": "O=C(c1nc(-c2cc(Br)c(O)c(Br)c2)no1)N1CCC(C(O)(c2ccccc2)c2ccccc2)CC1 [203a]", "TARGET OR SYSTEM": "CFTR (Homo sapiens)", "DISCRETE LABEL": "False"}
{"MOLECULE": "O=C(NCc1ccccc1)c1nc(-c2cc(Br)c(O)c(Br)c2)no1 [33a]", "TARGET OR SYSTEM": "CFTR (Homo sapiens)", "DISCRETE LABEL": "True"}

We now examine a further molecule.
Dear colleague, could you confirm whether IC50 of O=C(NCc1cccc(OC(F)(F)F)c1)c1noc(-c2cc(Cl)c(O)c(Cl)c2O)n1 [120a] falls below 20 µM? Thanks.
True

----------
Biological target: CFTR (Homo sapiens, UniProt P13569)
Construct: endogenous in cells; host or cells: T84 human colonic cells (ECACC)
Assay: T84 assay (FLIPR membrane potential dye, forskolin/IBMX-stimulated CFTR channel activity)
Type: cell-based
Settings: oxadiazole-containing compounds (a series), average of at least 2 runs unless annotated n = 1, read-out: IC50
MEASURED ENDPOINT: pIC50
Answers are plain numbers, as −log10 of the molar value.

Examples with their reported pIC50 follow.
{"COMPOUND": "CN(C(=O)c1nc(-c2cc(Br)c(O)c(Br)c2)no1)c1ccc(OC(F)(F)F)cc1", "MEASURED VALUE": 5.58}
{"COMPOUND": "O=C(NCc1ccc(F)cc1)c1noc(-c2cc(Cl)c(O)c(Cl)c2)n1 [115a]", "MEASURED VALUE": 4.93}
{"COMPOUND": "O=C(NCc1ccc(Oc2ccccc2)cc1)c1nc(-c2cc(Cl)c(O)c(Cl)c2)no1", "MEASURED VALUE": 5.28}
{"COMPOUND": "O=C(NCc1ccc(Cl)c(Cl)c1)c1nc(-c2cc(Br)c(O)c(Br)c2)no1 [22a]", "MEASURED VALUE": 4.96}
{"COMPOUND": "CN(Cc1cccc(-c2cccnc2)c1)C(=O)c1nc(-c2cc(Cl)c(O)c(Cl)c2)no1 [185a]", "MEASURED VALUE": 5.29}
{"COMPOUND": "O=C(NCc1ccccc1Cl)c1noc(-c2cc(Cl)c(O)c(Cl)c2)n1 [83a]", "MEASURED VALUE": 5.14}

# return pIC50 for each item in the list
1. O=C(NCc1ccccc1C(F)(F)F)c1noc(-c2cc(Cl)c(O)c(Cl)c2)n1 [88a]
2. CN(Cc1cccc(OC(F)(F)F)c1)C(=O)c1nc(-c2cc(Br)c(O)c(Br)c2)no1 [38a]
3. O=C(NC(c1ccccc1)c1ccccc1)c1nc(-c2cc(Cl)c(O)c(Cl)c2)no1 [15a]

5.21
5.60
5.05

----------
So I've got a bunch of compounds here, and I need their pIC50 values.
Target: CFTR (Homo sapiens, UniProt P13569)
Construct: endogenous in cells; host or cells: T84 human colonic cells (ECACC)
Assay: T84 assay (FLIPR membrane potential dye, forskolin/IBMX-stimulated CFTR channel activity)
Assay type: cell-based
Settings: oxadiazole-containing compounds (a series), average of at least 2 runs unless annotated n = 1, read-out: IC50
Answers are plain numbers, as −log10 of the molar value.

{"COMPOUND": "CC#CCN(Cc1cccc(C(F)(F)F)c1)C(=O)c1nc(-c2cc(Cl)c(O)c(Cl)c2)no1 [98a]", "pIC50": 5.54}

# return pIC50 for each item in the list
1. O=C(NCc1cc(C(F)(F)F)ccc1F)c1noc(-c2cc(Cl)c(O)c(Cl)c2)n1 [155a]
2. COc1ccc(Oc2ccc(CNC(=O)c3nc(-c4cc(Cl)c(O)c(Cl)c4)no3)cc2)cc1Cl [195a]
3. CN(Cc1cccc(Oc2ccccn2)c1)C(=O)c1nc(-c2cc(Cl)c(O)c(Cl)c2)no1 [178a]

1: 5.65; 2: 5.05; 3: 5.10

----------
Biological target: CFTR (Homo sapiens, UniProt P13569)
Construct: endogenous in cells; host or cells: T84 human colonic cells (ECACC)
Experiment: T84 assay (FLIPR membrane potential dye, forskolin/IBMX-stimulated CFTR channel activity)
Format: cell-based
Conditions: oxadiazole-containing compounds (a series), average of at least 2 runs unless annotated n = 1, read-out: IC50
Procedure: For example, Human colonic T84 cells can be acquired from the European Collection of Cell Cultures (ECACC) and grown in standard culture conditions as described by the supplier. […] T84 cells are incubated with the FLIPRRed membrane potential dye for 45 minutes in the presence and absence of test compound before being transferred to a commercially available fluorescence imaging plate reader (FLIPR384, Molecular Devices Corporation). […]
MEASURED ENDPOINT: pIC50
Give bare numbers, as −log10 of the molar value.

Examples with their reported pIC50 follow.
{"COMPOUND": "CC(C)(C)c1ccc(Oc2ccc(CNC(=O)c3nc(-c4cc(Cl)c(O)c(Cl)c4)no3)cc2)cc1 [192a]", "pIC50": 4.75}
{"COMPOUND": "O=C(NCc1cccc(OC(F)(F)F)c1)c1noc(-c2cc(Cl)c(O)c(Cl)c2)n1 [75a]", "pIC50": 5.68}
{"COMPOUND": "CCOCCN(Cc1cccc(C(F)(F)F)c1)C(=O)c1nc(-c2cc(Cl)c(O)c(Cl)c2)no1 [110a]", "pIC50": 5.42}

Look up and report measured pIC50 for this entry: CCc1ccc(CN(C)C(=O)c2nc(-c3cc(Cl)c(O)c(Cl)c3)no2)cc1 [150a]
5.20
